# Tested on: β-cells (dispersed rat islet cells)
# METHOD_NOTES: primary islet β-cell replication assay (PDX-1/ki-67 co-staining, automated imaging)
# Assay type: cell-based
# CONDITION_PARAMETERS: Rattus norvegicus; FIG. 13c dose-response curves; read-out: EC50, β-cell proliferation in rat islet cultures
OBSERVABLE: EC50 (µM)
Answer with a number only, understood to be in µM.

EC50 for `Nc1ncnc2nc(-c3ccc(N4CCOCC4)nc3)cc(-c3cccc(Br)c3)c12` is 7
